These measurements were taken from ChEMBL document CHEMBL4270632.

- Target Entity: 5'-nucleotidase (Homo sapiens)
- Sequence (P21589 whole entry): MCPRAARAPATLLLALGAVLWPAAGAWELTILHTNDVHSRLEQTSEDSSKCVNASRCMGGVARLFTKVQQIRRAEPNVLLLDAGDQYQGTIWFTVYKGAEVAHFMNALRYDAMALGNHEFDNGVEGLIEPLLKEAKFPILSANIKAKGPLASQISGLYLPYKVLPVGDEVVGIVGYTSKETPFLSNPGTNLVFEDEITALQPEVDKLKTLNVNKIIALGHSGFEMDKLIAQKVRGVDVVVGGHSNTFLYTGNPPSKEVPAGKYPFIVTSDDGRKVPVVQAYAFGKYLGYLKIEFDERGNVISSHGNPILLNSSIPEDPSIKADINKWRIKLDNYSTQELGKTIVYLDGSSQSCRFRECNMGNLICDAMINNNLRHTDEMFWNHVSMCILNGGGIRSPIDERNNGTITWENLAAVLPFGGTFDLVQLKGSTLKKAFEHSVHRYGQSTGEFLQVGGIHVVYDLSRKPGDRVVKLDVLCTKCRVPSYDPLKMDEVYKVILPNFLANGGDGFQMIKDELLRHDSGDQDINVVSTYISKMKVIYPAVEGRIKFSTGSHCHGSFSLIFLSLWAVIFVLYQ
- Assay Notes: Inhibition of CD73 in human MDA-MB-231 cells assessed as reduction in conversion of AMP to adenosine incubated for 30 mins by malachite green reagent based assay
- Type: cell-based
Measurement Label: pIC50
Scale: pIC50 equals -log10([C]), with [C] in mol/L.

Below, each entry is followed by its recorded pIC50 result.
{"columns": ["Record Smiles", "pIC50"],
 "data": [
  ["Nc1nc(F)nc2c1ncn2[C@@H]1O[C@H](COP(=O)(O)CP(=O)(O)O)[C@@H](O)[C@@H]1O", 3.95],
  ["Nc1ncnc2c1ncn2[C@@H]1O[C@H](COP(=O)(O)CP(=O)(O)O)[C@@H](O)[C@H]1O", 4.67],
  ["Nc1nc(Cl)nc2c1ncn2[C@H]1C[C@H](O)[C@@H](COP(=O)(O)CP(=O)(O)O)O1", 3.83]
]}

Query :: May I ask what pIC50 has been recorded for Nc1nc(Cl)nc2c1ncn2[C@@H]1O[C@H](COP(=O)(O)CP(=O)(O)O)[C@@H](O)[C@@H]1F ?
Result :: 5.49
